System: rodent lifetime carcinogenesis bioassay, tumor incidence TD50
experiment summary: carcinogenic potency in animals, long-term in vivo studies, CPDB compilation (AID 1745844)
experimental conditions: rat; strain Fischer 344; females; in drinking water; site: skin; lesion: basal-cell carcinoma; dosed 60 weeks; study length 60 weeks
assay metric: TD50 (mg/kg/day)

> print(dat)
                           mol  assay.metric  assay.value
1  Cc1cc(-c2ccc(N)c(C)c2)ccc1N          TD50         11.6

---

System: rodent lifetime carcinogenesis bioassay, tumor incidence TD50
experiment summary: carcinogenic potency in animals, long-term in vivo studies, CPDB compilation (AID 1745844)
experimental conditions: rat; strain Hebrew University; males; several routes; site: auricular region; lesion: epidermoid carcinoma; dosed 95 weeks; study length 95 weeks
assay metric: TD50

> print(dat)
       mol                       experimental.system  assay.metric    assay.value
1  NC(N)=S  rodent lifetime carcinogenesis bioassay, tumor incidence TD50          TD50  104 mg/kg/day

---

Tested on: rodent lifetime carcinogenesis bioassay, tumor incidence TD50
experiment summary: carcinogenic potency in animals, long-term in vivo studies, CPDB compilation (AID 1745844)
experimental conditions: rat; strain Sprague-Dawley; females; by gavage; site: liver; lesion: hepatocellular carcinoma; dosed 167 weeks; study length 167 weeks
assay metric: TD50 (mg/kg/day)

> print(dat)
                                        mol  assay.metric  result.unit  assay.value
1  CC/C(=C(\c1ccccc1)c1ccc(OCCN(C)C)cc1)c1ccccc1          TD50    mg/kg/day          164

---

Tested on: rodent lifetime carcinogenesis bioassay, tumor incidence TD50
experiment summary: carcinogenic potency in animals, long-term in vivo studies, CPDB compilation (AID 1745844)
experimental conditions: rat; strain Fischer 344; females; inhaled; site: liver; lesion: neoplastic nodule; dosed 104 weeks; study length 104 weeks
assay metric: TD50 (mg/kg/day)

> print(dat)
     mol  assay.value
1  C=CCl          166

---

Test system: rodent lifetime carcinogenesis bioassay, tumor incidence TD50
experiment summary: carcinogenic potency in animals, long-term in vivo studies, CPDB compilation (AID 1745844)
experimental conditions: mouse; strain ICR/Jcl; females; in feed; site: liver; lesion: hepatocellular tumor; dosed 104 weeks; study length 104 weeks
Active and inactive are the calls of the source. How the calls were made is not given here.
assay metric: TD50

> print(dat)
                                       mol                assay.value
1  NC(=O)C(=Cc1ccc([N+](=O)[O-])o1)c1ccco1  7070 mg/kg/day (inactive)

---

Tested on: rodent lifetime carcinogenesis bioassay, tumor incidence TD50
experiment summary: carcinogenic potency in animals, long-term in vivo studies, CPDB compilation (AID 1745844)
experimental conditions: mouse; strain HRA/Skh (hairless); males; in feed; site: skin; lesion: squamous-cell papilloma; dosed 52 weeks; study length 80 weeks
Active and inactive are the calls of the source. No rule for the calls is given here.
assay metric: TD50

> print(dat)
                         mol                       experimental.system  assay.metric               assay.value
1  COc1c2occc2cc2ccc(=O)oc12  rodent lifetime carcinogenesis bioassay, tumor incidence TD50          TD50  137 mg/kg/day (inactive)

---

System: rodent lifetime carcinogenesis bioassay, tumor incidence TD50
experiment summary: carcinogenic potency in animals, long-term in vivo studies, CPDB compilation (AID 1745844)
experimental conditions: mouse; strain B6C3F1; males; in feed; site: liver; lesion: hepatocellular adenoma + hepatocellular carcinoma + neoplastic nodule; dosed 106 weeks; study length 106 weeks
assay metric: TD50 (mg/kg/day)

> print(dat)
                                        mol  assay.metric  assay.value
1  O=C1c2ccccc2-c2ccc3c4c(ccc1c24)-c1ccccc1C3=O          TD50         8610

---

Test system: rodent lifetime carcinogenesis bioassay, tumor incidence TD50
experiment summary: carcinogenic potency in animals, long-term in vivo studies, CPDB compilation (AID 1745844)
experimental conditions: mouse; strain Charles River CD1; males; in feed; site: liver; lesion: carcinoma; dosed 56 weeks; study length 69 weeks
assay metric: TD50 (mg/kg/day)

> print(dat)
                                   compound  assay.value
1  C=CC(O)c1ccc2c(c1)OCO2 (stereo unspecified)        18900

---

Tested on: rodent lifetime carcinogenesis bioassay, tumor incidence TD50
experiment summary: carcinogenic potency in animals, long-term in vivo studies, CPDB compilation (AID 1745844)
experimental conditions: rat; strain Osborne-Mendel; females; in feed; site: any site (literature study); lesion: several types; types named in the paper; dosed 80 weeks; study length 109 weeks
Activity calls are given as the source filed them. No rule for the calls is given here.
assay metric: TD50

> print(dat)
                                   compound                       experimental.system  assay.metric                assay.value
1  ClC1=C(Cl)C2(Cl)C3C(Cl)C(Cl)CC3C1(Cl)C2(Cl)Cl (configuration not stated)  rodent lifetime carcinogenesis bioassay, tumor incidence TD50          TD50  18.4 mg/kg/day (inactive)
2  O=C1C2(Cl)C3(Cl)C4(Cl)C(Cl)(Cl)C5(Cl)C3(Cl)C1(Cl)C5(Cl)C24Cl (configuration not stated)  rodent lifetime carcinogenesis bioassay, tumor incidence TD50          TD50             1.83 mg/kg/day

---

System: rodent lifetime carcinogenesis bioassay, tumor incidence TD50
experiment summary: carcinogenic potency in animals, long-term in vivo studies, CPDB compilation (AID 1745844)
experimental conditions: rat; strain F344/DuCrj; males; in feed; site: liver; lesion: hepatocellular carcinoma; dosed 100 weeks; study length 100 weeks
assay metric: TD50

> print(dat)
                          mol  assay.metric     assay.value
1  Cc1cc2c(nc1N)[nH]c1ccccc12          TD50  11.7 mg/kg/day

---

Test system: rodent lifetime carcinogenesis bioassay, tumor incidence TD50
experiment summary: carcinogenic potency in animals, long-term in vivo studies, CPDB compilation (AID 1745844)
experimental conditions: rat; strain Fischer 344; females; in feed; site: any site (literature study); lesion: several types; types named in the paper; dosed 13 weeks; study length 13 weeks
assay metric: TD50 (mg/kg/day)

> print(dat)
                                        mol  assay.metric  result.unit  assay.value
1  O=C([O-])c1cc(N=Nc2ccc(-c3ccc(N=Nc4c(O)ccc(N=Nc5cc(S(=O)(=O)[O-])ccc5[O-])c4[O-])cc3)cc2)ccc1O.[Cu+2].[Na+].[Na+]          TD50    mg/kg/day         2.07
2  Nc1ccc(N=Nc2ccc(-c3ccc(N=Nc4c(S(=O)(=O)O)cc5cc(S(=O)(=O)O)c(N=Nc6ccccc6)c(O)c5c4N)cc3)cc2)c(N)c1          TD50    mg/kg/day         2.61
3  Nc1cc(S(=O)(=O)O)cc2cc(S(=O)(=O)O)c(N=Nc3ccc(-c4ccc(N=Nc5c(S(=O)(=O)O)cc6cc(S(=O)(=O)O)cc(N)c6c5O)cc4)cc3)c(O)c12          TD50    mg/kg/day         3.21

---

Test system: rodent lifetime carcinogenesis bioassay, tumor incidence TD50
experiment summary: carcinogenic potency in animals, long-term in vivo studies, CPDB compilation (AID 1745844)
experimental conditions: rat; strain Fischer 344; females; in drinking water; site: clitoral gland + colon + duodenum + jejunum + liver + lung + pharynx + rectum + skin + tongue + Zymbal's gland; lesion: adenoma + adenoma, bilateral + carcinoma + carcinoma, bilateral + adenomatous polyp + mucinous cystadenocarcinoma + hepatocellular c; dosed 98 weeks; study length 104 weeks
assay metric: TD50 (mg/kg/day)

> print(dat)
                                        mol                       experimental.system  assay.metric  result.unit  assay.value
1  Cc1ccc(S(=O)(=O)Oc2ccc(N=Nc3ccc(-c4ccc(N=Nc5c(O)ccc6cc(S(=O)(=O)O)cc(S(=O)(=O)O)c56)c(C)c4)cc3C)cc2)cc1  rodent lifetime carcinogenesis bioassay, tumor incidence TD50          TD50    mg/kg/day         3.11

---

Test system: rodent lifetime carcinogenesis bioassay, tumor incidence TD50
experiment summary: carcinogenic potency in animals, long-term in vivo studies, CPDB compilation (AID 1745844)
experimental conditions: rat; strain Fischer 344; males; by gavage; site: liver; lesion: hemangiosarcoma; dosed 121 weeks; study length 121 weeks
assay metric: TD50

> print(dat)
                              mol  assay.metric     assay.value
1  Cc1ccc(S(=O)(=O)OCCN(C)N=O)cc1          TD50  11.8 mg/kg/day
